- assayed.target: T1, human CD8 on human T cells (human, UniProt P01732 22-235)
- T1 construct: whole, on cells; the antibodies were raised against human CD8 alpha; also called CD8 on human CD8+ T cells; hCD8
- T1 sequence (P01732 22-235): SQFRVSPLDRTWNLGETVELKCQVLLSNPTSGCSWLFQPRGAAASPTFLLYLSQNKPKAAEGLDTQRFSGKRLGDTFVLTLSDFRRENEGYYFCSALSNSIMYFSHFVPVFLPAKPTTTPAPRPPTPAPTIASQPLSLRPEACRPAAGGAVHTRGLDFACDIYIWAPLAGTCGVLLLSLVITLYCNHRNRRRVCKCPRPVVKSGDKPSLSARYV
- experiment.summary: flow cytometry on human CD8+ T cells, titration
measure.name: Fold Change to Parental Apparent KD (fold)
Form entry: value (fold) — number only.

Examples with answers:
binder	Fold Change to Parental Apparent KD, fold
humanized 03A01-VH3-VK3 (antibody, human IgG1, V domains shown, human IgG1 format; also called 03-VH3/VK3) VH: EVQFQESGPGLVKPSQTLSLTCTVSGYSITSDFAWNWIRQPPGKGLEWMGYISYSGDTNYNPSLKSRVTISRDTSKNQFSLKLSSVTAADTAVYYCTIRGYYTDSAFVFWGQGTLVTVSS VL: DIQMTQSPSTLSASVGDRVTITCKASDHINNWLAWYQQKPGKAPKLLISGATSLETGVPSRFSGSGSGLEYTLTISSLQPDDFATYYCQQYWNSPFTFGQGTKLEIK	2.1
humanized 03A01-VH2-VK3 (antibody, human IgG1, V domains shown, human IgG1 format; also called 03-VH2/VK3) VH: EVQFQESGPGLVKPSQTLSLTCTVSGYSITSDFAWNWIRQPPGKGLEWMGYISYSGDTNYNPSLRSRITISRDTSKNQFSLKLSSVTAADTAVYYCTIRGYYTDSAFVFWGQGTLVTVSS VL: DIQMTQSPSTLSASVGDRVTITCKASDHINNWLAWYQQKPGKAPKLLISGATSLETGVPSRFSGSGSGLEYTLTISSLQPDDFATYYCQQYWNSPFTFGQGTKLEIK	2.1

Turning now to a further binder:
QUERY: I'd like to know its Fold Change to Parental Apparent KD. The binder in question is humanized 03A01-VH2-VK2 (antibody, human IgG1, V domains shown, human IgG1 format; also called 03-VH2/VK2) VH: EVQFQESGPGLVKPSQTLSLTCTVSGYSITSDFAWNWIRQPPGKGLEWMGYISYSGDTNYNPSLRSRITISRDTSKNQFSLKLSSVTAADTAVYYCTIRGYYTDSAFVFWGQGTLVTVSS VL: DIQMTQSPSTLSVSVGDRVTITCKASDHINNWLAWYQQKPGKAPKLLISGATSLETGVPSRFSGSGSGLEYTLTISSLQPDDFATYYCQQYWNSPFTFGQGTKLEIK
RESULT: 2
